study-target: furin, P09958;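 note: purified furin at 1:10 enzyme:substrate in 50 mM HEPES pH 7.5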
Sequence (P09958 whole entry): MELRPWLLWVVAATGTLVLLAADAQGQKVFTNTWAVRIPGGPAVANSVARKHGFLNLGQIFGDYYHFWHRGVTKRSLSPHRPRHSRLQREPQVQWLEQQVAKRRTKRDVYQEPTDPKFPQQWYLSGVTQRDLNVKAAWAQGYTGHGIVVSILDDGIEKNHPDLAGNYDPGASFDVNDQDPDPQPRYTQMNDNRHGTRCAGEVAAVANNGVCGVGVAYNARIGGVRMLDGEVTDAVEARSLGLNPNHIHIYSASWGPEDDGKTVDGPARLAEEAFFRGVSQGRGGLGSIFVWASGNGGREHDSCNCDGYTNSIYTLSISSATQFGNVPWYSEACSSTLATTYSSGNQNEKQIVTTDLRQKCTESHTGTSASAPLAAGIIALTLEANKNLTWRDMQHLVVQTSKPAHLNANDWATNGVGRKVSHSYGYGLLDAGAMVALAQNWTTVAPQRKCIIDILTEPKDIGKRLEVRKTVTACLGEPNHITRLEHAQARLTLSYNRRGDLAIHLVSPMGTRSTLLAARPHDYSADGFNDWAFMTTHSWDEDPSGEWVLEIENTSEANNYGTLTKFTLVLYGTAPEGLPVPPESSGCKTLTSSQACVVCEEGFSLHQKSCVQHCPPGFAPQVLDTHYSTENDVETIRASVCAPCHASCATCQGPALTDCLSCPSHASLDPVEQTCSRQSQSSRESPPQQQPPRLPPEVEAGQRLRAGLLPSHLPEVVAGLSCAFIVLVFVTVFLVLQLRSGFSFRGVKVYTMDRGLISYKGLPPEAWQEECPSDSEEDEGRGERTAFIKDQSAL
method-summary: furin cleavage Z-score vs untreated control; higher = more cleavage, active = 3.5 or more, inactive = 1 or less, 8 variable residues between constant flanks
recorded-conditions: 15 min
This is one part of the list. The true hit rate is not given.
Examples of sequences with documented furin cleavage Z-score follow.

INSERT INTO assay_data (residue_string, parameter, endpoint_value) VALUES
  ('CARLDRSYSYAGNASASA [FS-2986]', 'furin cleavage Z-score', '-0.0412 (inactive)'),
  ('CATKADKRRSAGNASASA [FS-1093]', 'furin cleavage Z-score', '-0.227 (inactive)'),
  ('CARFKRQTSYAGNASASA [FS-2923]', 'furin cleavage Z-score', '8.05 (active)'),
  ('CAVVCCSTSYAGNASASA [HC2058]', 'furin cleavage Z-score', '0.804 (inactive)'),
  ('CATDDDFERSAGNASASA [FS-629]', 'furin cleavage Z-score', '-1.72 (inactive)'),
  ('CAHQRRKYRSAGNASASA [FS-796]', 'furin cleavage Z-score', '5.12 (active)'),
  ('CAVCCCSMSYAGNASASA [HC2020]', 'furin cleavage Z-score', 1.69),
  ('CASTPCSAHPAGNASASA [HC2579]', 'furin cleavage Z-score', '0.373 (inactive)'),
  ('CARFPRAYSYAGNASASA [FS-2924]', 'furin cleavage Z-score', '0.732 (inactive)'),
  ('CAKLNRRSRKAGNASASA [FS-810]', 'furin cleavage Z-score', '6.18 (active)');

input: Any idea what its furin cleavage Z-score is? The sequence is CATKDRKRRSAGNASASA [FS-880]
output: 13.2 (active)

input: Can you share its furin cleavage Z-score? I mean this sequence: CATKDNFKRSAGNASASA [FS-727]
output: 1.62

input: Report furin cleavage Z-score for CAVVCCMMSYAGNASASA [HC108] please.
output: 0.787 (inactive)

input: // lookup furin cleavage Z-score for CAKRGRKRRSAGNASASA [FS-1021]
output: 12.1 (active)

input: What value of furin cleavage Z-score has been recorded for this entry: CARFPRTWWQAGNASASA [FS-1949]
output: -0.0617 (inactive)
